Please go through the items and note down their fold induction at 8 µM.
test system: T-cell; assay: CD25 cell surface staining on T-cells stimulated with anti-CD3 antibody alone (Biological Example 2); format: cell-based, human; conditions: T-cell; fold change over baseline; 8 μM Cbl-b inhibitor; primary human total T-cells; read-out: CD25 staining Anti-CD3 stimulation

// below: answered molecules
[Q] Can you share its fold induction at 8 µM? I mean this molecule: C[C@H](Sc1nncn1C)c1cccc(N2Cc3c(ccnc3Cl)C2=O)c1 [Compound 167]
[A] 0.601 to 0.8

[Q] Please give the result for C[C@H](Sc1nncn1C)c1cccc(NC(=O)c2cc(C(=O)N3CC[C@H](O)C3)ccn2)c1 [Compound 140] too.
[A] 0.801 to 1

[Q] Ok, now C[C@H](Cc1nncn1C)c1cccc(NC(=O)c2cc3cc(N4CCN(C)C(=O)C4)ccc3cn2)c1 [Compound 209, 2,2,2-trifluoroacetate]
[A] > 1

[Q] Param item: C[C@@H](Cc1nncn1C)c1cccc(NC(=O)c2cc(C3CC3)cc(C(F)(F)F)n2)c1 [Compound 322]
[A] 0.601 to 0.8

[Q] Repeat for the following molecule: C[C@H](Cc1nncn1C)c1cccc(NC(=O)c2cc(C3CC3)cc(C(F)(F)F)n2)c1 [Compound 191]
[A] > 1

I'm hoping you can list fold induction at 8 µM for every molecule here, please.
1. Cc1cccc2nc(C(=O)Nc3cccc([C@H](C)Sc4nncn4C)c3)ccc12 [Compound 48]
2. Cn1cnnc1[C@@H]1C[C@@H]1c1cccc(N2Cc3c(cccc3C(F)(F)F)C2=O)c1 [Compound 282]
3. C[C@H](Sc1nncn1C)c1cccc(NC(=O)c2cccc(C(C)(F)F)n2)c1 [Compound 81]
4. C[C@H](Cc1nncn1C)c1cccc(NC(=O)c2cccc(CCO)n2)c1 [Compound 202]
5. C[C@H](Cc1nncn1C)c1cccc(NC(=O)c2cncc(C(F)(F)F)n2)c1 [Compound 189]

[A]
1. 0.801 to 1
2. > 1
3. > 1
4. 0.801 to 1
5. > 1

###

molecular target: Cbl-b (Homo sapiens); experiment: Cbl-b activity assay (Cbl-b inhibition assay), TR-FRET of Cbl-b interaction with UbcH5B-Ub; format: biochemical; settings: assay buffer with 100 mM NaCl, 60 nM Src kinase; read-out: Cbl-b activity IC50
Provide the reported IC50 of each item.

Example entries begin here.
[Q] Would you kindly share the measured IC50 for C[C@H](Cc1nncn1C)c1cccc(N2Cc3c(cc(C4CC4)nc3C3CC3)C2=O)c1 [Compound 370] ?
[A] 100 to 300 nM

[Q] For C[C@H](Cc1nncn1C)c1cccc(NC(=O)c2cc3cc(N4CCN(C)C(=O)C4)ccc3cn2)c1 [Compound 209, 2,2,2-trifluoroacetate] then?
[A] < 100 nM

Below are 2 molecules. Give each one its IC50.
1. Cc1conc1C[C@@H](C)c1cccc(N2Cc3c(cc(C(=O)N4CC[C@H](O)C4)cc3C(F)(F)F)C2=O)c1 [Compound 407]
2. CNc1ccnc(C(=O)Nc2cccc([C@H](C)Sc3nncn3C)c2)c1 [Compound 60]

[A]
1. < 100 nM
2. 1000 to 3000 nM

###

biological target: Cbl-b (Homo sapiens, UniProt Q13191); assay: Cbl-b activity assay (Cbl-b inhibition assay), TR-FRET of Cbl-b interaction with UbcH5B-Ub; type: biochemical; details: assay buffer with 100 mM NaCl, 60 nM Src kinase; read-out: Cbl-b activity IC50
Sequence (Q13191 36-427): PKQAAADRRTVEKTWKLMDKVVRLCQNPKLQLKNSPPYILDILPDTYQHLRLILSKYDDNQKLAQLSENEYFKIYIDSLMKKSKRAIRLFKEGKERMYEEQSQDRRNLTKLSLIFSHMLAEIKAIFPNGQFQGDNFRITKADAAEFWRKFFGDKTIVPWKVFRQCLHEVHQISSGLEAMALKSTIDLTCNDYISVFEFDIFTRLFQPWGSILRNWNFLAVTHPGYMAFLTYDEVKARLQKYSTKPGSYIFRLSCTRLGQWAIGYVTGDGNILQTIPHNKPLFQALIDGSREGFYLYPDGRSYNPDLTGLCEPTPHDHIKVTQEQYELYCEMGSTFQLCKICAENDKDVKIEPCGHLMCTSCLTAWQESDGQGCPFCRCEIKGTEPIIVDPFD
pIC50: −log10 of the molar value.
MEASURED_PARAMETER: pIC50

// known answers, use as guide
[Q] State the recorded pIC50 for this entry: Cc1c[nH]nc1C[C@@H](C)c1cccc(N2Cc3c(cc(C(=O)N4CCC(O)C4)cc3C(F)(F)F)C2=O)c1 (stereo in doubt) [Compound 463]
[A] > 7.00

[Q] Consider next the molecule Cn1cnnc1CC1(c2cccc(N3Cc4c(cc(CN5CCc6ccncc6C5)cc4C(F)(F)F)C3=O)c2)COC1 [Example 638] in the same way.
[A] > 7.00

[Q] What would you report for CN1CCN(c2cc3c(c(C(F)(F)F)c2)CN(c2cccc([C@@](C)(F)C(F)(F)c4nncn4C)c2)C3=O)CC1 [Compound 441] ?
[A] 6.52 to 7.00

[Q] Ok, now Cn1cnnc1CC1(c2cccc(NC(=O)c3cc(C4CC4)nc4ccnn34)c2)COC1 [Example 604]
[A] > 7.00

[Q] And Cn1cnnc1CC1(c2cccc(N3Cc4c(cc(CN5Cc6cccc(Cl)c6C5)cc4C(F)(F)F)C3=O)c2)COC1 [Example 657] ?
[A] > 7.00

[Q] Next molecule up: Cn1cnnc1[C@@H](F)C1(c2cccc(N3Cc4c(cc(CN5CCC(F)CC5)cc4C(F)(F)F)C3=O)c2)COC1 [Example 670a]
[A] > 7.00

Please find the next molecule below.
[Q] Param item = C[C@H](Cc1nccn1C)c1cccc(N2Cc3c(cccc3C(F)(F)F)C2=O)c1 [Compound 267a] ; retrieve measured pIC50.
[A] 5.52 to 6.00

###

molecular target: Cbl-b (Homo sapiens, UniProt Q13191); test: Cbl-b activity assay (Cbl-b inhibition assay), TR-FRET of Cbl-b interaction with UbcH5B-Ub; assay type: biochemical; details: assay buffer with 100 mM NaCl, 60 nM Src kinase; read-out: Cbl-b activity IC50
pIC50: −log10 of the molar value.
MEASURED_PARAMETER: pIC50

Answered cases to consult:
[Q] Find the recorded pIC50 belonging to Cn1cnnc1[C@H]1CC[C@H]1c1cccc(N2Cc3c(cccc3C(F)(F)F)C2=O)c1 (racemic) and report it.
[A] 6.00 to 6.52

[Q] What about this compound? Cn1cnnc1CC1(c2cccc(N3Cc4c(cc(CN5Cc6cccnc6C5)cc4C(F)(F)F)C3=O)c2)COC1
[A] > 7.00

[Q] What do you have for C[C@H](Cc1nncn1C)c1cccc(NC(=O)c2cc(C(=O)N3CC[C@@H](C#N)C3)ccn2)c1 ?
[A] 5.52 to 6.00

// moving on: another record for pIC50
[Q] I'd like to know its pIC50. The compound in question is Cn1cnnc1CC1(c2cccc(N3Cc4c(cc(C5CCCOC5)cc4C(F)(F)F)C3=O)c2)COC1 (stereo not shown)
[A] > 7.00

###

Can you tell me IC50 for the items I'm about to list?
target: Cbl-b (Homo sapiens); assay: Cbl-b activity assay (Cbl-b inhibition assay), TR-FRET of Cbl-b interaction with UbcH5B-Ub; assay type: biochemical; details: assay buffer with 100 mM NaCl, 60 nM Src kinase; read-out: Cbl-b activity IC50

Value sought for every listed compound: IC50.
1. Cn1cnnc1CC1(c2cccc(N3Cc4c(cc(CN5CC[C@@H]6OCC[C@@H]6C5)cc4C(F)(F)F)C3=O)c2)COC1 (relative stereo)
2. CCn1cnnc1C[C@@H](C)c1cccc(NC(=O)c2cc(C(=O)N3C[C@@H](O)C[C@H]3C)ccn2)c1

[A]
["< 100 nM", "301 to 1000 nM"]

Please go through the list and note IC50 for each compound.
1. C[C@H](Sc1nncn1C)c1cccc(NC(=O)c2cc(C(=O)N3CCC[C@@H](O)C3)ccn2)c1
2. Cn1cnnc1[C@@H]1C[C@@H]1c1cccc(N2Cc3c(cc(CN4CC[C@H](F)C4)cc3C(F)(F)F)C2=O)c1
3. C[C@H](Cc1nncn1C)c1cccc(N2Cc3c(cc(CN4CC[C@H](F)C4)cc3C(F)(F)F)C2=O)c1

[A]
1: 3000 to 10000 nM; 2: < 100 nM; 3: < 100 nM

###

system: T-cell; assay: IL-2 secretion from T-cells stimulated with anti-CD3 antibody alone (Biological Example 2); assay type: cell-based, human; conditions: T-cell; fold change over baseline; 1 μM Cbl-b inhibitor; primary human total T-cells; read-out: IL-2 secretion Anti-CD3 stimulation
Kindly state fold induction at 1 µM for each of the entries shown.

Quick batch: fold induction at 1 µM for everything below.
1. Cn1cnnc1CC(C)(C)c1cccc(NC(=O)c2cccc(C(F)(F)F)n2)c1
2. Cc1cc(C)nc(C(=O)Nc2cccc([C@H](C)Sc3nncn3C)c2)c1
3. Cc1cc(C(=O)Nc2cccc([C@@H](C)Cc3nncn3C)c2)nc(C2CC2)n1

[A]
1. > 0.201
2. < 0.05
3. 0.051 to 0.1

[Q] Consider the compound Cc1ccc(C(=O)Nc2cccc(C(C)Cc3nccn3C)c2)nc1C1CC1 (stereo not shown) and give its measured fold induction at 1 µM.
[A] 0.051 to 0.1

###

biological target: Cbl-b (Homo sapiens); test: Cbl-b inhibition assay (Cbl-b activity assay, FRET, Biological Example 1; 100 mM NaCl, 60 nM Src kinase); assay type: biochemical; conditions: upper bound stated in text lists; read-out: IC50 values in the Cbl-b inhibition assay of Biological Example 1
pIC50: −log10 of the molar value.
MEASURED_PARAMETER: pIC50

Worked set:
[Q] Which pIC50 value is on record for Cc1cc(C(=O)Nc2cccc(C3(Cc4nncn4C(F)F)COC3)c2)nc(C2CC2)n1 [Example 704] ?
[A] ≥ 7.00

[Q] And the next one, C[C@H](Sc1nncn1C)c1cccc(NC(=O)c2cc(C(=O)N3CC[C@@H](N(C)C)C3)ccn2)c1 [Compound 159] ?
[A] ≥ 5.00

[Q] Now try Cn1cnnc1CC1(c2cccc(N3Cc4c(cc(CN5CCOC(C(F)F)C5)cc4C(F)(F)F)C3=O)c2)COC1 (stereo not shown) [Example 630] .
[A] ≥ 7.00

[Q] What do you have for C[C@H](Cc1nncn1C)c1cccc(N2Cc3c(cc(CN4CC(C)(O)C4)cc3C(F)(F)F)C2=O)c1 [Compound 397] ?
[A] ≥ 7.00

Answer for every listed entry: what is its pIC50? The entries follow.
1. C[C@H](Cc1nncn1C)c1cccc(N2Cc3c(cc(C(=O)N4CC(O)C4)cc3C3CC3)C2=O)c1 [Compound 278]
2. CN1CC[C@@H](O)[C@@H](Cc2cc3c(c(C(F)(F)F)c2)CN(c2cccc(C4(Cc5nncn5C)COC4)c2)C3=O)C1 (racemic) [Compound 532]
3. C[C@H](Cc1nncn1C)c1cccc(NC(=O)c2cccc(S(C)(=O)=O)n2)c1 [Compound 185]

[A]
≥ 7.00
≥ 7.00
≥ 6.00
